Just for reference, ChEMBL document CHEMBL1201862 is where these values come from.

tested on: SNB-19; assay: NCI tumour cell line growth inhibition, 48 h
Activity calls are given as the source filed them. Cut-off read from the data, not from the text of the source: active = GI50 up to about 1.1 µM and inactive = higher.
Your reply should match one of these outcome classes. active, inactive

Solved entries:
COC1OC(CBr)C(OC(c2ccccc2)(c2ccccc2)c2ccccc2)C(OC(c2ccccc2)(c2ccccc2)c2ccccc2)C1OC(c1ccccc1)(c1ccccc1)c1ccccc1 (stereo not given)	inactive
CCOc1ccc(OCC(=O)O)c2c1CCCC2=O	inactive
Oc1c(Br)c(-c2ccccc2)nc2ccccc12	inactive
CC1(C)[C@@H]2C[C@H]1C(Cc1cccc(C[C@H]3c4cc(-c5ccccn5)ncc4[C@H]4C[C@@H]3C4(C)C)c1)c1cc(-c3ccccn3)ncc12 (stereo not given in full)	inactive
CC(=O)OC1C(C)OC(OC(=O)C2CCC3C(C2)OC2(CC(OC(=O)/C=C/c4ccccc4)C(C)CO2)C32CO2)C(OC2OC(C)C(O)C(OC(C)=O)C2O)C1O (stereo not given)	active

Exercise: Which outcome was entered for the compound O=C1OCC/C1=C/c1ccc(/N=N/c2c(O)ccc3ccccc23)cc1 in this test?
Solution: inactive
